The origin of these recorded values is the supplement of paper PMC9233669.

Please respond with reported self-aminoacylation for every item in the list.
- System: biotinyl-Val-oxazolone
- assay_summary: self-aminoacylation, catalytic enhancement (BVO) (fold over background); higher = more active; k-Seq, kA / k0A0; sequences stand for … in GGGAAUGGAUCCACAUCUACGAAUUC…UUCACUGCAGACUUGACGAAGCUG
Fewer inactive variants are shown than the library holds.
Number only, no unit.

Ask: Look up self-aminoacylation for this sequence: AUUACCCUAGUCAUGGAGUGA [Fam2.1 aminoacylation ribozyme variant]
Reply: 2.68

Ask: Can you check AUUCACCUACGUCCUCGGGUG [Fam2.2 aminoacylation ribozyme variant] next?
Reply: 2.12

Ask: How about AUAACGCUGGUCAUCGAGUGA [Fam2.1 aminoacylation ribozyme variant] ?
Reply: 2.76

Ask: # repeat for CUACUACAAACAAUCAGUCUG [Fam1A.1 aminoacylation ribozyme variant]
Reply: 0.732

Ask: Subsequent entry: UAGUUUGGUAAUAGUCGCAAG [Fam3.1 aminoacylation ribozyme variant]
Reply: 1.57

Ask: What do you have for AUUACCAUGGGCAUCGAGUGA [Fam2.1 aminoacylation ribozyme variant] ?
Reply: 3.13

Ask: And what about the sequence GUUCACCUAGGUCAUCGGGUA [Fam2.2 aminoacylation ribozyme variant] ?
Reply: 22.6

Ask: Would you mind doing AAAUUUGCUAAUAGUCGCCAG [Fam3.1 aminoacylation ribozyme variant] as well?
Reply: 2.15
